Data provenance: the supplement of paper PMC9112550

system: Escherichia coli TOP10; assay: shrunken log2 fold change of peptide-encoding DNA abundance (4.5 h post-induction vs induction); higher = less antimicrobial activity (less host growth inhibition); details: time post-induction: 4.5 h; library: site-saturation at positions 5, 18, 19, 20;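 further: peptides expressed intracellularly from a pBAD plasmid library in pooled LB shake-flask culture, induced with 0.3% L-arabinose, DNA abundance read by NGS, three biological replicates, DESeq2 with apeglm shrinkage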
Listed here are sequences together with their documented shrunken log2 fold change.
Response field accepts a number only; no unit should be typed.

Past entries and their recorded results:
{"SEQUENCE_RECORD": "RRIRFRPPRLPRPRPRPAAGPRP", "READING": 0.333}
{"SEQUENCE_RECORD": "RRIRDRPPRLPRPRPRPYSMPRP", "READING": -0.0516}
{"SEQUENCE_RECORD": "RRIRQRPPRLPRPRPRPECPPRP", "READING": 0.184}
{"SEQUENCE_RECORD": "RRIRLRPPRLPRPRPRPTWKPRP", "READING": -0.06}
{"SEQUENCE_RECORD": "RRIRPRPPRLPRPRPRPVDMPRP", "READING": 0.0425}
{"SEQUENCE_RECORD": "RRIRRRPPRLPRPRPRPGMCPRP", "READING": 0.269}
{"SEQUENCE_RECORD": "RRIRPRPPRLPRPRPRPAWKPRP", "READING": -0.109}
{"SEQUENCE_RECORD": "RRIRARPPRLPRPRPRPAAAPRP", "READING": 1.11}
{"SEQUENCE_RECORD": "RRIRNRPPRLPRPRPRPEKQPRP", "READING": 0.0721}
{"SEQUENCE_RECORD": "RRIRLRPPRLPRPRPRPVFMPRP", "READING": -0.203}

The sequence identified as `RRIRSRPPRLPRPRPRPREHPRP` registered its shrunken log2 fold change at 0.152

The sequence identified as `RRIRCRPPRLPRPRPRPACKPRP` registered its shrunken log2 fold change at -0.312

The sequence identified as `RRIRQRPPRLPRPRPRPNKIPRP` registered its shrunken log2 fold change at -0.388

The sequence identified as `RRIRTRPPRLPRPRPRPLGCPRP` registered its shrunken log2 fold change at 0.0809

The sequence identified as `RRIRSRPPRLPRPRPRPECFPRP` registered its shrunken log2 fold change at 3.03

The sequence identified as `RRIRYRPPRLPRPRPRPTVPPRP` registered its shrunken log2 fold change at -0.382

The sequence identified as `RRIRQRPPRLPRPRPRPCSNPRP` registered its shrunken log2 fold change at -0.174

The sequence identified as `RRIRDRPPRLPRPRPRPCLNPRP` registered its shrunken log2 fold change at 0.0235

The sequence identified as `RRIRPRPPRLPRPRPRPAITPRP` registered its shrunken log2 fold change at -0.361

The sequence identified as `RRIRDRPPRLPRPRPRPICYPRP` registered its shrunken log2 fold change at 0.204

The sequence identified as `RRIRMRPPRLPRPRPRPKHSPRP` registered its shrunken log2 fold change at 0.247

The sequence identified as `RRIRVRPPRLPRPRPRPWFKPRP` registered its shrunken log2 fold change at 0.0333
